Assign fraction unbound at 5 h, 1 µM to each entry below.
experiment: Plasma protein binding (PPB), human; format: in vitro ADME; details: 5 h dialysis, read-out: Plasma protein binding rate (%) Human (converted)
One number for each entry.

>  <compound>
CN1CCN(c2ccc(Nc3ncc4cnn(-c5cccc(N=S(C)(C)=O)n5)c4n3)cc2)CC1 [Compound 1]

>  <fraction unbound at 5 h, 1 µM>
0.144

$$$$

# context switch: different compound, same fraction unbound at 5 h, 1 µM
Provide one value: measured fraction unbound at 5 h, 1 µM of C=CCn1c(=O)c2cnc(Nc3ccc(N4CCN(C)CC4)cc3)nc2n1-c1cccc(C(C)(C)O)n1 [AZD-1775, reference compound] 0.36

* * *

tested on: H1299 cells; assay: Anti-proliferative effect by Cell Titer-Glo, H1299; format: cell-based; conditions: Homo sapiens, NCI-H1299, 72 h; H1299 cells, 3 days, Cell Titer-Glo; read-out: IC50 measured value H1299
endpoint.name: IC50

Give one value of IC50 per listed compound.
1. CS(C)(=O)=Nc1cccc(-n2ncc3cnc(Nc4ccc(N5CCOCC5)cc4)nc32)n1 [Compound 6]
2. Cc1cc(Nc2ncc3cnn(-c4cccc(C(C)(C)O)n4)c3n2)ccc1N1CCN(C)CC1 [Compound 21]
3. CN1CCN(c2ccc(Nc3ncc4cnn(-c5cccc(C(C)(C)O)c5)c4n3)cc2)CC1 [Compound 12]
4. CN1CCN(c2c(Cl)cc(Nc3ncc4cnn(-c5cccc(N=S(C)(C)=O)n5)c4n3)cc2Cl)CC1 [Compound 17]

1. 100 to 1000 nM
2. 1000 to 5000 nM
3. 100 to 1000 nM
4. 5000 to 20000 nM

Give one value of IC50 per listed compound.
1. CN1CCN(c2ccc(Nc3ncc4cnn(-c5cncc(C(C)(C)O)c5)c4n3)cc2)CC1 [Compound 32]
2. CN1CCN(c2ccc(Nc3ncc4cnn(-c5cccc(N=S(C)(C)=O)n5)c4n3)cc2CO)CC1 [Compound 23]
3. CN1CCN(c2ccc(Nc3ncc4cnn(-c5cccc(N=S(C)(C)=O)n5)c4n3)cc2F)CC1 [Compound 19]
4. CN1CCN(c2ccc(Nc3ncc4cnn(-c5cccc(-n6ccccc6=O)c5)c4n3)cc2)CC1 [Compound 48]

1. 100 to 1000 nM
2. 100 to 1000 nM
3. 1000 to 5000 nM
4. 1000 to 5000 nM

* * *

IC50 values recorded for Wee1 protein (Homo sapiens, UniProt P30291)

The cases that follow already have their IC50 on record.
>  <compound>
CN1CCN(c2c(Cl)cc(Nc3ncc4cnn(-c5cccc(N=S(C)(C)=O)n5)c4n3)cc2Cl)CC1

>  <IC50>
10 to 100 nM

$$$$
>  <compound>
COc1nn(-c2cccc(N=S(C)(C)=O)n2)c2nc(Nc3ccc(N4CCN(C)CC4)cc3)ncc12 [Compound 27B]

>  <IC50>
10 to 100 nM

$$$$
>  <compound>
CN1CCN(c2ccc(Nc3ncc4cnn(-c5cncc(C(C)(C)O)c5)c4n3)cc2)CC1

>  <IC50>
100 to 1000 nM

$$$$
>  <compound>
CN(C)C1CCN(c2ccc(Nc3ncc4cnn(-c5cccc(N=S(C)(C)=O)n5)c4n3)cc2)CC1

>  <IC50>
1 to 10 nM

$$$$
>  <compound>
CN1CC2CC1CN2c1ccc(Nc2ncc3cnn(-c4cccc(N=S(C)(C)=O)n4)c3n2)cc1 (stereo not shown)

>  <IC50>
1 to 10 nM

$$$$
>  <compound>
CN1CCN(c2ccc(Nc3ncc4cnn(-c5cccc(C6(S(C)(=O)=O)CC6)n5)c4n3)cc2)CC1

>  <IC50>
10 to 100 nM

$$$$

# context switch: different compound, same IC50
Provide one value: measured IC50 of `CN1CCN(c2ccc(Nc3ncc4cnn(-c5cc(C(C)(C)O)ccc5F)c4n3)cc2)CC1` 100 to 1000 nM
